For each of the compounds below, state its metabolised at 1 µM.
Molecular target: CYP2D6 (Homo sapiens, UniProt P10635)
Sequence (P10635 whole entry): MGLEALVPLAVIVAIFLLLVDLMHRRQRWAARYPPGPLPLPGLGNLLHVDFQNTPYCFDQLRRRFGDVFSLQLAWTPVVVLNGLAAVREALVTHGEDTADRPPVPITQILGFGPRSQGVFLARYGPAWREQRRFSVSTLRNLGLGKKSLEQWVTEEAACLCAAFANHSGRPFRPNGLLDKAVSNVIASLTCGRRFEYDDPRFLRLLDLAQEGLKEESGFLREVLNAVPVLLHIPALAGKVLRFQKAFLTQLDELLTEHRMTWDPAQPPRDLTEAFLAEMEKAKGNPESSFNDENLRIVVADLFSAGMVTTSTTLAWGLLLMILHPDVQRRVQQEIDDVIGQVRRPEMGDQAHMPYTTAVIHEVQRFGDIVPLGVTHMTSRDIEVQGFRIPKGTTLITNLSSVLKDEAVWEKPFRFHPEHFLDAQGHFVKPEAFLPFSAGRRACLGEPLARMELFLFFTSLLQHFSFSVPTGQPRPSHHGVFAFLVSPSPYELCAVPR
Assay: Drug metabolism in human liver microsomes assessed as CYP2D6-medited compound metabolism at 1 uM after 15 to 30 mins by LC-MS/MS analysis
Type: ADME
Conditions: read-out: Drug metabolism
Response body: numeric value in %, unit text excluded.

I would be grateful if you could share the reported metabolised at 1 µM for COCCOc1cc(CC2CCN(CCc3ccc4c(c3)OCCO4)CC2)ccc1Br .
55.6

I would be grateful if you could share the reported metabolised at 1 µM for COCCOc1cc(Br)cc(CC2CCN(CCc3ccc4c(c3)C(=O)CCO4)CC2)c1 .
14

I would be grateful if you could share the reported metabolised at 1 µM for COCCOc1cc(Br)cc(CC2CCN(CCc3cc4c(cc3Cl)OCCO4)CC2)c1 .
64.4

I would be grateful if you could share the reported metabolised at 1 µM for COCCOc1cc(CC2CCN(CCc3ccc4c(c3)OCCC4=O)CC2)ccc1Br .
3.6

I would be grateful if you could share the reported metabolised at 1 µM for COCCOc1cc(CC2CCN(CCc3ccc4c(c3)C(=O)CCCO4)CC2)ccc1Br .
4.2

I would be grateful if you could share the reported metabolised at 1 µM for COCCOc1cc(CC2CCN(CCc3ccc4c(c3)S(=O)(=O)CCO4)CC2)ccc1Br .
55.8

I would be grateful if you could share the reported metabolised at 1 µM for COCCOc1cc(CC2CCN(CCc3ccc4c(c3)C(=O)CCO4)CC2)ccc1C .
48.5

I would be grateful if you could share the reported metabolised at 1 µM for COCCOc1cc(Br)cc(CC2CCN(CCc3ccc4c(c3)OCCO4)CC2)c1 .
49.4

I would be grateful if you could share the reported metabolised at 1 µM for CCc1ccc(CC2CCN(CCc3ccc4c(c3)C(=O)CCO4)CC2)cc1OCCOC .
18.4

I would be grateful if you could share the reported metabolised at 1 µM for COCCOc1cc(CC2CCN(CCc3ccc4c(c3)C(=O)CCC4)CC2)ccc1Br .
11.8

I would be grateful if you could share the reported metabolised at 1 µM for COCCOc1cc(CC2CCN(CCc3cc4c(cc3Cl)OCCO4)CC2)ccc1Br .
75.6

I would be grateful if you could share the reported metabolised at 1 µM for COCCOc1cc(CC2CCN(CCc3ccc4c(c3)CCCO4)CC2)ccc1Br .
0

I would be grateful if you could share the reported metabolised at 1 µM for COCCOc1cc(CC2CCN(CCc3ccc4c(c3)OCCC4)CC2)ccc1Br .
6.8

I would be grateful if you could share the reported metabolised at 1 µM for COCCOc1cc(CC2CCN(CCc3ccc4c(c3)C(=O)CCO4)CC2)ccc1Cl .
53.5

I would be grateful if you could share the reported metabolised at 1 µM for COCCOc1cc(CC2CCN(CCc3ccc4c(c3)C(=O)CCO4)CC2)ccc1Br .
0

I would be grateful if you could share the reported metabolised at 1 µM for COCCOc1cc(CC2CCN(CCc3ccc4c(c3)C(O)CCO4)CC2)ccc1Br (configuration not stated) .
36.4

I would be grateful if you could share the reported metabolised at 1 µM for COCCOc1ccc(Br)c(CC2CCN(CCc3cc4c(cc3Cl)OCCO4)CC2)c1 .
86
